Test system: LNCaP human prostate cancer cells
Test: Inhibition of LNCaP cell proliferation (MTT)
Assay type: cell-based
Conditions: 100 μg/ml, 48 h, 5×10^5 cells/ml
property_measured: % INHIBITION of LNCaP human prostate cancer cell proliferation (%)
Form entry: value (%) — number only.

Request: Let me know recorded % INHIBITION of LNCaP human prostate cancer cell proliferation for GGGTGG [SEQ ID NO:25 phosphorothioate] , thanks.
Response: −8

Request: Let me know recorded % INHIBITION of LNCaP human prostate cancer cell proliferation for GGTGGG [SEQ ID NO:24] , thanks.
Response: 17

Request: Let me know recorded % INHIBITION of LNCaP human prostate cancer cell proliferation for TGTGTG [SEQ ID NO:9 phosphorothioate] (phosphorothioate backbone) , thanks.
Response: −16

Request: Let me know recorded % INHIBITION of LNCaP human prostate cancer cell proliferation for TTTGTT [SEQ ID NO:23 phosphorothioate] (phosphorothioate backbone) , thanks.
Response: −11

Request: Let me know recorded % INHIBITION of LNCaP human prostate cancer cell proliferation for TGTGTG [SEQ ID NO:9] , thanks.
Response: −9

Request: Let me know recorded % INHIBITION of LNCaP human prostate cancer cell proliferation for GGTGGG [SEQ ID NO:24 phosphorothioate] , thanks.
Response: −17

Request: Let me know recorded % INHIBITION of LNCaP human prostate cancer cell proliferation for GTGTGT [SEQ ID NO:10] , thanks.
Response: −4

Request: Let me know recorded % INHIBITION of LNCaP human prostate cancer cell proliferation for GTGTGT [SEQ ID NO:10 phosphorothioate] , thanks.
Response: −20

Request: Let me know recorded % INHIBITION of LNCaP human prostate cancer cell proliferation for TTGTTT [SEQ ID NO:26 phosphorothioate] , thanks.
Response: −1

Request: Let me know recorded % INHIBITION of LNCaP human prostate cancer cell proliferation for TTGTTT [SEQ ID NO:26] , thanks.
Response: 22

Request: Let me know recorded % INHIBITION of LNCaP human prostate cancer cell proliferation for TTTGTT [SEQ ID NO:23] , thanks.
Response: 14

Request: Let me know recorded % INHIBITION of LNCaP human prostate cancer cell proliferation for GGGTGG [SEQ ID NO:25] , thanks.
Response: 18

----------
Test system: HL-60 human promyelocytic leukemia cells
Test: Inhibition of HL-60 cell proliferation (MTT)
Type: cell-based
Conditions: 100 μg/ml, 48 h
Criterion: % INHIBITION of HL-60 human promyelocytic leukemia cell proliferation strictly less than 20%. Met: criterion met. Not met: criterion not met.

Request: Hello, I'm reviewing records and need to know if % INHIBITION of HL-60 human promyelocytic leukemia cell proliferation of GGGTGG [SEQ ID NO:25] is below 20%. Could you check?
Response: criterion not met

Request: Hello, I'm reviewing records and need to know if % INHIBITION of HL-60 human promyelocytic leukemia cell proliferation of TTTGTT [SEQ ID NO:23] is below 20%. Could you check?
Response: criterion met

Request: Hello, I'm reviewing records and need to know if % INHIBITION of HL-60 human promyelocytic leukemia cell proliferation of GTGTGT [SEQ ID NO:10] is below 20%. Could you check?
Response: criterion met

Request: Hello, I'm reviewing records and need to know if % INHIBITION of HL-60 human promyelocytic leukemia cell proliferation of GGTGGG [SEQ ID NO:24] is below 20%. Could you check?
Response: criterion met

Request: Hello, I'm reviewing records and need to know if % INHIBITION of HL-60 human promyelocytic leukemia cell proliferation of TGTGTG [SEQ ID NO:9] is below 20%. Could you check?
Response: criterion met

Request: Hello, I'm reviewing records and need to know if % INHIBITION of HL-60 human promyelocytic leukemia cell proliferation of TTGTTT [SEQ ID NO:26] is below 20%. Could you check?
Response: criterion met

From: patent US20070213291A1
